Target or system: BRD3(2) (Homo sapiens, UniProt Q15059)
Construct: made in house
Sequence (Q15059 306-415 limits assumed): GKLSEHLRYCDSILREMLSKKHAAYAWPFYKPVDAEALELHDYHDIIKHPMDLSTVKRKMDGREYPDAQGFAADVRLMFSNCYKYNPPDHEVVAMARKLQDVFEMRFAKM
Assay name: Protein stability (thermal) shift assay, BRD3(2)
Assay type: binding
Measurement setup: compound 10 μM, protein 2 μM; average of triplicate
Readout kind: ΔTm at 10 µM (°C)

A selection of reference data follows.
• Nc1nc(-c2cccc(OCc3ccc(Cl)cc3)c2)c2nc[nH]c2n1 [Compound 4d] = 1.2
• Cn1cnc2c(-c3cccc(OCc4ccc(Cl)cc4)c3)nc(N)nc21 [Compound 4e] = 0.223
• COc1ccc(Br)cc1-c1nc(N)nc2[nH]cnc12 [Compound 7d] = 0.7

(I) CCOc1ccc(Br)cc1-c1nc(N)nc2[nH]cnc12 [Compound 7e]
(II) COc1ccc(Cl)cc1-c1nc(O)nc2[nH]cnc12 [Compound 8e]
(III) Cn1cnc2c(Br)nc(N)nc21 [Compound 2b, 2-Amino-6-bromo-9-methylpurine]
(IV) Nc1nc(-c2ccc(COc3cccc(C(F)(F)F)c3)cc2)c2nc[nH]c2n1 [Compound 3g]
Rank order required: ΔTm at 10 µM, descending. Lab note: final answer is the ordered label list.
I, II, IV, III

(1) COc1cccc(OCC(C)C)c1-c1nc(N)nc2[nH]cnc12 [Compound 6c]
(2) COc1ccc(F)cc1-c1nc(O)nc2[nH]cnc12 [Compound 8d]
Which of the two gives a bigger number for ΔTm at 10 µM: 1 or 2 ? # answer = label of selected item
1
